Documented pIC50 across a set of binders
- System under test: T1, β-catenin (UniProt P35222 1-781, limits assumed)
- T1 construct: also called beta-catenin
- T1 sequence (looked up): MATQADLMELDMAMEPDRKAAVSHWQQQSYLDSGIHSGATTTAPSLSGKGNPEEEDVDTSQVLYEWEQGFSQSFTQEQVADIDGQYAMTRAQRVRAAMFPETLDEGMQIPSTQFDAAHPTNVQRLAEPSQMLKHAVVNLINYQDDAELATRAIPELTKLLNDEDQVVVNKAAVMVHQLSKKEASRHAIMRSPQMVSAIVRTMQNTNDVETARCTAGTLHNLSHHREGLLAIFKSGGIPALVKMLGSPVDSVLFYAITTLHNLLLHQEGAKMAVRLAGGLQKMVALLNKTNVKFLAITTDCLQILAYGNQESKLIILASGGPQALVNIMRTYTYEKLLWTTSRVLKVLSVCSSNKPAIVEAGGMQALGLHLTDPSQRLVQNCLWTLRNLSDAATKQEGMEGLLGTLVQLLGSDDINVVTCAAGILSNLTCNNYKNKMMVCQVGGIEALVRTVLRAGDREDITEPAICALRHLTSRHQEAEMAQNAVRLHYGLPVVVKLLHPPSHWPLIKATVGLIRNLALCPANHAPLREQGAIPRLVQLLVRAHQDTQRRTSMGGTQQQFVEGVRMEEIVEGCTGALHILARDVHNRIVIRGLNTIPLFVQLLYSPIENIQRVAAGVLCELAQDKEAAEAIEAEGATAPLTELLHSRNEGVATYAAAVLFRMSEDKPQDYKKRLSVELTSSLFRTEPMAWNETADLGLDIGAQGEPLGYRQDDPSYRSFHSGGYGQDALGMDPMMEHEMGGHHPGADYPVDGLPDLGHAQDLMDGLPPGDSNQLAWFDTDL
- Protocol details: ALPHA Screen (BCL9/β-catenin);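 note: bead proximity readout with the polypeptide linked to donor beads and β-catenin fixed on acceptor beads, their binding bringing the beads close enough to emit signal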
Bridges are numbered along the chain shown (N, C = ends). Where no end group is shown, it is not given here. [ ]: non-standard residue; d: D form. 2Nal = N[C@@H](Cc1ccc2ccccc2c1)C(=O)O; Cha = N[C@@H](CC1CCCCC1)C(=O)O; S5 = C=CCCC[C@](C)(N)C(=O)O; Nle = CCCC[C@H](N)C(=O)O
# pIC50: negative log10 of molar concentration; output just the value

Binder | pIC50
EHRERSLQTLR[Nle]IQR[Nle]L[2Nal] [SEQ ID NO: 64] | 5.76
Ac-LQTLR[S5]IQR[S5][Cha][2Nal]-NH2 (staple 6-10; SMILES CC[C@H](C)[C@@H]1NC(=O)[C@@](C)(NC(=O)[C@H](CCCNC(=N)N)NC(=O)[C@H](CC(C)C)NC(=O)[C@@H](NC(=O)[C@H](CCC(N)=O)NC(=O)[C@H](CC(C)C)NC(C)=O)[C@@H](C)O)CCCC=CCCC[C@@](C)(C(=O)N[C@@H](CC2CCCCC2)C(=O)N[C@@H](Cc2ccc3ccccc3c2)C(N)=O)NC(=O)[C@H](CCCNC(=N)N)NC(=O)[C@H](CCC(N)=O)NC1=O) [SEQ ID NO: 127] | 5.00
Ac-LQTLR[S5]IQR[S5][Cha][2Nal]-NH2 (staple 6-10; not fully specified (residue 2); printed as L(N-methylQ)TLRXIQRX(Cha)(2-Nal)) [SEQ ID NO: 122] | 5.14

Could you now look at the following binder, please?
Query :: Recorded pIC50 for Ac-HRERSLQTLR[S5]IQA[S5]L[2Nal]-NH2 (staple 11-15; not fully specified; printed as HRERSLQTLRXIQAXL(2-Nal)) [SEQ ID NO: 28] , please?
Result :: 5.70
